Data origin, for the record: patent US20240376214A1

target: T1, human c-Met (HGFR), full length, on the cell surface (human, UniProt P08581 25-1390); assay: flow cytometry, NCI-H596 cells pre-incubated with 50 ng/mL HGF
T1 construct: Endogenous c-Met on human tumor cell lines MKN45, NCI-H596, PC-3 and HepG2; also called hepatocyte growth factor receptor; mesenchymal-epithelial transition factor
T1 sequence (P08581 25-1390 limits assumed): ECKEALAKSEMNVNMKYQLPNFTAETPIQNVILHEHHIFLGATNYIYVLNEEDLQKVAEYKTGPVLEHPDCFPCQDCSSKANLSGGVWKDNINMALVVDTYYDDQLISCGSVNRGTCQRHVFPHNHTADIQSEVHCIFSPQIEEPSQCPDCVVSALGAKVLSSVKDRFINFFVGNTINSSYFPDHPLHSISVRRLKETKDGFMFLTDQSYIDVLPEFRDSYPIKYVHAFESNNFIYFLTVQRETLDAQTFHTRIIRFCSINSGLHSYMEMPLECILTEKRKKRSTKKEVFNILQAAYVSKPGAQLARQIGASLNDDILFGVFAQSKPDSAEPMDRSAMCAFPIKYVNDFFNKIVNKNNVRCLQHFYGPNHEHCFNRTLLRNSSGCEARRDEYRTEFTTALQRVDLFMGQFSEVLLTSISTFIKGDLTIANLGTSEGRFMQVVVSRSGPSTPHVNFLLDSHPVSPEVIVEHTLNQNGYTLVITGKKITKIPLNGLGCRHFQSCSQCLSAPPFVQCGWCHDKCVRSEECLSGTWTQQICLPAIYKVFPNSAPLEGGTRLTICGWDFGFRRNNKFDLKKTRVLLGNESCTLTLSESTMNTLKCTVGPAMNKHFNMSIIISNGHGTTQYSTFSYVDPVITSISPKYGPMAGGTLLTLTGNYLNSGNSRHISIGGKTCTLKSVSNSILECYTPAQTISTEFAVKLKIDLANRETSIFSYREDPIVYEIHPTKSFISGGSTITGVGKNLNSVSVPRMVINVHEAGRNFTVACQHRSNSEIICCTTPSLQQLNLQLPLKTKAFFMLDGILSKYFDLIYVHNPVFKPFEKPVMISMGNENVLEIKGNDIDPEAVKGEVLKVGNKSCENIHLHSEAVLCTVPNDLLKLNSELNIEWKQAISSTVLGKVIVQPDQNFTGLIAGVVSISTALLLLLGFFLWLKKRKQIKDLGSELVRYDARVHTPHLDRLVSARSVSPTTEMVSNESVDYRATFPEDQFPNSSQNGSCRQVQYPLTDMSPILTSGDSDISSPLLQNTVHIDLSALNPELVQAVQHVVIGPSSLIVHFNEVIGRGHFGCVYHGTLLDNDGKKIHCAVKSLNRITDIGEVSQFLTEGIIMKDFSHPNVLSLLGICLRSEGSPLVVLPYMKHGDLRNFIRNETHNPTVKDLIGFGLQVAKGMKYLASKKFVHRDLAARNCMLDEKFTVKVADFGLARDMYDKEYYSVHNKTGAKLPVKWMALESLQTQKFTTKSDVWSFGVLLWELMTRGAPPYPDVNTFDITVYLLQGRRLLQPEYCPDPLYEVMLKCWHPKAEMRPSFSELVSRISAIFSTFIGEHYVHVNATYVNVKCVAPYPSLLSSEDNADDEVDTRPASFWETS
Reported Endpoint: EC50 (µg/mL)
Give bare numbers, in µg/mL.

• mAb3a (antibody, human IgG1, kappa, V domains shown, Humanized IgG1 kappa, HC-41C, from wt/41C-chi-mAb3; also called humanized HC-41C antibody mAb3a) VH: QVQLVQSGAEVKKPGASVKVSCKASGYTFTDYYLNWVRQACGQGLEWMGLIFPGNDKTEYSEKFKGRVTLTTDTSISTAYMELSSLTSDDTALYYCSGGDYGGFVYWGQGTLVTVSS VL: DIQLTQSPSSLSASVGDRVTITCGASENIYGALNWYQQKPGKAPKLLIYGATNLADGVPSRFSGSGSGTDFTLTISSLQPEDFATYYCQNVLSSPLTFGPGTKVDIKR = 0.08
• mAb2c (antibody, human IgG1, kappa, V domains shown, Humanized IgG1 kappa, HC-41C, from wt/41C-chi-mAb2; also called humanized HC-41C antibody mAb2c) VH: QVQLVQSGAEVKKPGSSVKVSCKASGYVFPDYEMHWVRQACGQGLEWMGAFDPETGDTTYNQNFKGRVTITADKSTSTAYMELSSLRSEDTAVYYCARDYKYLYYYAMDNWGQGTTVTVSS VL: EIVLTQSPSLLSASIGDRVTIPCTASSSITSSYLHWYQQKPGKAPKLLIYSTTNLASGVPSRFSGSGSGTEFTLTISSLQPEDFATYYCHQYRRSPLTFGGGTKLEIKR = 0.1

Kindly review the next binder as well.
Quick check: EC50 of mAb2a (antibody, human IgG1, kappa, V domains shown, Humanized IgG1 kappa, HC-41C, from wt/41C-chi-mAb2; also called humanized HC-41C antibody mAb2a) VH: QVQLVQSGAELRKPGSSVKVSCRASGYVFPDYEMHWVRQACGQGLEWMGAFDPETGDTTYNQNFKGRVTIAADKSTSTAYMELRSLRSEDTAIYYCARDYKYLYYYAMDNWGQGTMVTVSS VL: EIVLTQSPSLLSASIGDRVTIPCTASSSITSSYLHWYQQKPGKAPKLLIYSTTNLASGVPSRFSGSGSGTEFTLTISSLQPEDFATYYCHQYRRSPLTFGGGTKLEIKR ?
0.08
